assayProtocol: membrane potential response in parental HEK293 cells, counter-screen for CHT activator project, cell-based, membrane potential dye (AID 623908)
conditionLabel: parental HEK293, membrane potential dye fluorescence (FDSS); at 10 µM; measured after EC20 choline addition
Screen size: about 2,500 compounds; about 1,500 (60%) were called active. The set was probably picked from earlier hits. The list is a sample of the results.
measurementLabel: ratio readout change

| itemSmiles | result |
| --- | --- |
| CCOC(=O)c1cccnc1NC(=O)c1ccncc1 | -20.3 (active) |
| O=C(c1ccccc1F)N(Cc1ccccc1)Cc1ccccc1 | inactive |
| Cc1ccc(C(=O)C[n+]2cc(-c3ccccc3)n3c2CCCCC3)cc1 | inactive |
| CCCCn1c(N)c(N(CCC(C)C)C(=O)c2ccc(COc3ccccc3)o2)c(=O)[nH]c1=O | inactive |
| COc1ccc(Nc2nnc(C)c3ccccc23)cc1 | -50.6 (active) |

Here's the next entry for you.
Problem: Please give the measured ratio readout change for this molecule: `Cc1ccc(C(=O)c2ccc(N3CCN(C)CC3)c([N+](=O)[O-])c2)cc1`
Solution: inactive

====

assayProtocol: membrane potential response in parental HEK293 cells, counter-screen for CHT activator project, cell-based, membrane potential dye (AID 623908)
conditionLabel: parental HEK293, membrane potential dye fluorescence (FDSS); at 10 µM; measured after EC20 choline addition
In all, about 2,500 compounds went through this assay and about 1,500 (60%) were called active.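 The calls were made as follows: active = duplicate-averaged ratio beyond 3 SD from buffer wells, up or down, though filed actives are nearly all decreases; inactive = the rest.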 The set was probably picked from earlier hits. These entries were drawn from the full list.
Assign a class; possible classes are active, inactive

| molecule | category |
| --- | --- |
| CCN(CC)CCCNC(=O)c1cn(C)c2ccc(S(=O)(=O)N(C)C3CCCCC3)cc2c1=O | active |
| Cn1c(=O)[nH]c(=O)c2c1nc(N1CCN(CCO)CC1)n2CCSc1nc2ccccc2s1 | active |

Problem: Look up the recorded call for CC(Sc1nc2ccccc2c(=O)n1Cc1ccco1)C(=O)c1ccccc1 (stereo not given) in this test.
Solution: inactive

Problem: Look up the recorded call for CCN(CC)CCC(c1cc(OC)c(OC)c(OC)c1)c1c(OC)cc(OC)c2c(-c3ccccc3)cc(=O)oc12 (stereo not given) in this test.
Solution: active

Problem: Look up the recorded call for `N=c1c2c3c(sc2ncn1CCCN1CCOCC1)CCCCC3` in this test.
Solution: active

Problem: Look up the recorded call for `COc1ccccc1NC(=O)CSc1nnc(-c2ccoc2C)n1CCc1ccccc1` in this test.
Solution: inactive

Problem: Look up the recorded call for COc1ccccc1NC(=O)C1=C(C)Nc2nc3ccccc3n2C1c1cccs1 (stereo not given) in this test.
Solution: inactive

Problem: Look up the recorded call for CC(Nc1nc(N2CCN(CCO)CC2)nc2ccccc12)c1ccccc1 (stereo not given) in this test.
Solution: active

Problem: Look up the recorded call for `Cc1nnc(C)c2c(C)n(N)c(C)c12` in this test.
Solution: active

Problem: Look up the recorded call for `Clc1ccc(COn2c(-c3ccc(Cl)cc3Cl)nc3ncccc32)cc1` in this test.
Solution: inactive
